- assayed_system: benzodiazepine receptors
- protocol_text: in vitro displacement of 3H flunitrazepam (or 3H diazepam) from benzodiazepine receptors, rat cerebrum suspension
- Assay type: binding
- condition_info: rat cerebral membrane suspension, 3H flunitrazepam 1.0 nM, 0° C., pH 7.1
Entries and their IC50, displacement of specific binding of 3H flunitrazepam (in vitro)
quantity: IC50, displacement of specific binding of 3H flunitrazepam (in vitro) (ng/mL)

compound	assayed_system	unit_name	measured_value
CCOC(=O)c1ncc2[nH]c3ccc(C4=CCCCCCC4)cc3c2c1C	benzodiazepine receptors	ng/mL	19
CCOC(=O)c1ncc2[nH]c3ccc(C(C)(C)C)cc3c2c1C	benzodiazepine receptors	ng/mL	7.5
CCOC(=O)c1cc2c(cn1)[nH]c1ccc(C(C)C)cc12	benzodiazepine receptors	ng/mL	0.9
CCOC(=O)c1ncc2[nH]c3ccc(CCc4ccccc4)cc3c2c1C	benzodiazepine receptors	ng/mL	14
CCOC(=O)c1ncc2[nH]c3cccc(Cc4ccccc4)c3c2c1COC	benzodiazepine receptors	ng/mL	0.5
CCOC(=O)c1ncc2[nH]c3ccc(C4CCCCC4)cc3c2c1C	benzodiazepine receptors	ng/mL	12
CCOC(=O)c1ncc2[nH]c3ccc(C4CCCC(=O)C4)cc3c2c1C (stereo not shown)	benzodiazepine receptors	ng/mL	0.6

Where these numbers come from: patent US4623649A
